- targetDesc: T1, mouse PTH1R overexpressed on CHO cells (mouse, UniProt P41593 27-591)
- T1 sequence (looked up): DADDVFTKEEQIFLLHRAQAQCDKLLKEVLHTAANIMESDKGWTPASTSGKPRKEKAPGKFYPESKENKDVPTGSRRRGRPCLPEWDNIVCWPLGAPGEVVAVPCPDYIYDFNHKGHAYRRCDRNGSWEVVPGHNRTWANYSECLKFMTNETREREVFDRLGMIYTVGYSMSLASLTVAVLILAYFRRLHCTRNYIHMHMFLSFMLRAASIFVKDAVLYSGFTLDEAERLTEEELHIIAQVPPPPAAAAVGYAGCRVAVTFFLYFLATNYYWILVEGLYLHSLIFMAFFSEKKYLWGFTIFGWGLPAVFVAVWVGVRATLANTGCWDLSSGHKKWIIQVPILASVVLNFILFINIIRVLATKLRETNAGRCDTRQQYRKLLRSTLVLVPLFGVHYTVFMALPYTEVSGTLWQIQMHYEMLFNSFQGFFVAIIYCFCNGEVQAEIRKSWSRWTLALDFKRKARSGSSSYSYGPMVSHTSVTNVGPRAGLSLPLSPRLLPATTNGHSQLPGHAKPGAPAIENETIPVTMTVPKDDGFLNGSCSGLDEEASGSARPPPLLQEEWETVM
- method: cell-based or functional assay
testReadout: IC50, inhibition of PTHrP(1-34)-induced cAMP accumulation (nM)
Numbers only, in nM.

XPA.85.331 (antibody, V domains shown, Light-chain-shuffled variant of XPA.85.012) VH: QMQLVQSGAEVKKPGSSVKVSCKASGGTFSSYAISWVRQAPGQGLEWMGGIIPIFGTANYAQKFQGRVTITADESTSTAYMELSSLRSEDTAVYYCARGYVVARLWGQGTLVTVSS VL: DVVMTQSPLSLPVTPGEPASISCRSSQSLLHIDGFNYLQWYLQKPGQSPQLLVHLGSFRASGVPDRFSGSGSGTDFTLEISRVEAEDVGLYYCMQGLQTPPTFGPGTKVEIK	3.2
XPA.85.329 (antibody, V domains shown, IgG; also called Ab329; XPA.329) VH: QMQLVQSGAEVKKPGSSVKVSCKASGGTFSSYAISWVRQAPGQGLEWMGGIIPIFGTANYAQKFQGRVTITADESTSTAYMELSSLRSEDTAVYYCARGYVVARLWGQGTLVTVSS VL: DIVMTQTPLSLSVTPGQPASISCKSSQSLLHIDGLTYLYWYLQKPGQPPQLLIYEVSHRFSGVSDKFSGSGSGTDFTLTISRVEAEDVGVYYCMQSLHLPITFGQGTRLEIK	2.66
XPA.85.344 (antibody, V domains shown, Light-chain-shuffled variant of XPA.85.012) VH: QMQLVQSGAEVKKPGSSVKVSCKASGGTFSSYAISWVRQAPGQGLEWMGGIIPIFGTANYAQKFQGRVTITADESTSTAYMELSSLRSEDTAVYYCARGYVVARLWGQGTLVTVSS VL: DVVMTQTPLSLSVTPGQPASFSCKSTQSLLWRDGNTYLYWYLQKPGQSPQLLIYEVSGRFSGVPERFSGSGSGTDFTLEISRVEAEDVGVYYCMQSIHFPLTFGGGTKLEIK	3.89
XPA.85.328 (antibody, V domains shown, IgG; also called Ab328) VH: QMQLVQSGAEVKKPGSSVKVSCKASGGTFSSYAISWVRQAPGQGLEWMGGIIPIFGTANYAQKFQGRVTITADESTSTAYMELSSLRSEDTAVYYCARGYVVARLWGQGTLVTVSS VL: DVVMTQTPLSLSVTPGQPASISCKSSQSLLHIDGKTYLYWYLQKSGQSPQLLIYEVSNRFSGVPDTFSGSGSGTDFTLKISRVEAEDVGVYYCMQSLHFPITFGQGTRLEIK	2.23

Here is the next item to consider.
The binder listed as XPA.85.332 (antibody, V domains shown, Light-chain-shuffled variant of XPA.85.012) VH: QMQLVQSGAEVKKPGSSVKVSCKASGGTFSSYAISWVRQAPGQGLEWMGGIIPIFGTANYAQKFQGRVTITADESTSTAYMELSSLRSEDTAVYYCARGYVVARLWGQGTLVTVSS VL: ETTLTQSPAFMSASVGDRVTITCQASQDINNFLNWYQQKPGKAPKFLIYDASNLEKGVPSKFSGRGSGTEFTLTISSLQPEDIATYYCQQYRDFPLTFGQGTRLEIK has a reported IC50, inhibition of PTHrP(1-34)-induced cAMP accumulation of 2.3
